- measurement_description: Pharmacokinetics of mice, single intravenous and oral administration, plasma
- Format: in vivo
- run_conditions: mouse, po; male ICR mice, gavage 10 mg/kg, plasma
# log10(AUC(0-inf)) per record follows
measure: log10(AUC(0-inf)) (log10 of the value in ng·h/mL)

{"compound_smiles": "Cc1cc2c(c(C)c1NC(=O)CC1(C)CC1)CCN(c1ccc(C(F)(F)F)cc1)C2", "log10(AUC(0-inf))": 4.49}
{"compound_smiles": "Cc1cc2c(c(C)c1NC(=O)CC1(C)CC1)CCN(c1ccc(F)cc1F)C2", "log10(AUC(0-inf))": 2.85}
{"compound_smiles": "Cc1cc2c(c(C)c1NC(=O)CC(C)(C)C)CCN(c1ccc(F)cc1)C2", "log10(AUC(0-inf))": 2.90}
{"compound_smiles": "Cc1cc2c(c(C)c1NC(=O)CC(C)(C)C)CCN(c1ccc(F)cc1F)C2", "log10(AUC(0-inf))": 3.16}
{"compound_smiles": "Cc1cc2c(c(C)c1NC(=O)CC1(C)CC1)CCN(c1ccc(F)cc1)C2", "log10(AUC(0-inf))": 2.73}
